- Assay method text: Human plasma half-life assay
- Type: in vitro ADME
- Setup conditions: human plasma, 37° C., LC-MS; read-out: Human Plasma T½ (converted)
Where no end group is shown, it is not given here. [ ]: non-standard residue; d: D form. The star is where a group is joined. NMeY = CN[C@@H](Cc1ccc(O)cc1)C(=O)O; Ac6c = NC1(C(=O)O)CCCCC1; Nle = CCCC[C@H](N)C(=O)O; X1 = CCCN1C(=O)CC(*)C1=O; Ac5c = NC1(C(=O)O)CCCC1; Aib = CC(C)(N)C(=O)O
Think of 20 h as a floor: if half-life at 0.1 mg/ml stands on it or above, it is Y; beneath it, N.

[Q] For this substance, is measured half-life at 0.1 mg/ml 20 h or higher? Y[Aib]EG[Aib]FISDYSIAMDKIHQQDFVNWLLAQKGKKNDWKHNITQ-OH [Example 4, (Aib^2, 5)hGIP(1-42)-OH]
[A] Y

[Q] For this substance, is measured half-life at 0.1 mg/ml 20 h or higher? H-[NMeY][Aib]EGTFISDY[Ac5c]IA[Nle]DKIHQQDFVNWLLAQKGKKNDWKHNITQ-OH [Example 113]
[A] Y

[Q] For this substance, is measured half-life at 0.1 mg/ml 20 h or higher? Y[Aib]EGTFISDYSIA[Ac6c]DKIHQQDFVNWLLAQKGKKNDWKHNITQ-OH [Example 42, (Aib^2, A6c^14)hGIP(1-42)-OH]
[A] N

[Q] For this substance, is measured half-life at 0.1 mg/ml 20 h or higher? Y[Aib]EGTF[Ac6c]SDYSI[Aib][Nle]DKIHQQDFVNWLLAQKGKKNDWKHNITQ-OH [Example 21, (Aib^2, 13, A6c^7, Nle^14)hGIP(1-42)-OH]
[A] Y

[Q] For this substance, is measured half-life at 0.1 mg/ml 20 h or higher? Y[Aib]EGTF[Ac6c]SDYSIAMDKIHQQDFVNWLLAQKGKKNDWKC(X1)NITQ-OH [Example 80, [Aib^2, A6c^7, Cys(Psu)^38]hGIP(1-42)-OH]
[A] Y

[Q] For this substance, is measured half-life at 0.1 mg/ml 20 h or higher? Y[Aib]EGTF[Ac6c]SDYSIA[Nle]DKIHQQDFVNWLLAQKGKKNDWKHNI[Aib]Q-OH [Example 25, (Aib^2, 41, A6c^7, Nle^14)hGIP(1-42)-OH]
[A] Y

---

- Assay method text: Rat plasma half-life assay
- Format: in vitro ADME
- Setup conditions: rat plasma, 37° C., LC-MS; read-out: Rat Plasma T½ (converted)
Where no end group is shown, it is not given here. [ ]: non-standard residue; d: D form. The star is where a group is joined. Desaminotyrosyl = O=C(CCc1ccc(O)cc1)*; Pip = O=C(O)[C@@H]1CCCCN1; Ac6c = NC1(C(=O)O)CCCCC1; Nle = CCCC[C@H](N)C(=O)O; Ac5c = NC1(C(=O)O)CCCC1; Aib = CC(C)(N)C(=O)O
Param label: returns T when half-life at 0.1 mg/ml < 300 min, returns F otherwise, including exact equality.

Example cases with answers are listed next.
substance="YAPGTFISDYSI[Aib][Nle]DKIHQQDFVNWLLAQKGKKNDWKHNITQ-OH [Example 62, (Pro^3, Aib^13, Nle^14)hGIP(1-42)-OH]" assigned_class=T
substance="Y[Aib]EGTFISDY[Ac5c]IA[Ac6c]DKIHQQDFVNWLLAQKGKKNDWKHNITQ-OH [Example 61, (Aib^2, A5c^11, A6c^14)hGIP(1-42)-OH]" assigned_class=F
substance="Desaminotyrosyl-AEGTFISDYSI[Aib]MDKIHQQDFVNWLLAQKGKKNDWKHNITQ-OH [Example 101, (4Hppa^1, Aib^13)hGIP(1-42)-OH]" assigned_class=F
substance="Y[Aib]EGTF[Ac5c]SDYSIA[Ac6c]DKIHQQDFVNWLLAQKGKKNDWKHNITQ-OH [Example 44, (Aib^2, A5c^7, A6c^14)hGIP(1-42)-OH]" assigned_class=F
substance="Y[Aib]E[Aib]TFISDYSIAMDKIHQQDFVNWLLAQKGKKNDWKHNITQ-OH [Example 10, (Aib^2, 4)hGIP(1-42)-OH]" assigned_class=T

[Q] hey, is half-life at 0.1 mg/ml for YA[Pip]GTFISDYSI[Aib][Nle]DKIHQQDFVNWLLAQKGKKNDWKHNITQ-OH [Example 63, (hPro^3, Aib^13, Nle^14)hGIP(1-42)-OH] lower than 300 min or not?
[A] T

[Q] hey, is half-life at 0.1 mg/ml for Y[dA]EGTFISDY[Ac5c]IAMDKIHQQDFVNWLLAQKGKKNDWKHN[Ac5c]TQ-OH [Example 104, (D-Ala^2, A5c^11,40)hGIP(1-42)-OH] lower than 300 min or not?
[A] F

[Q] hey, is half-life at 0.1 mg/ml for Y[dA]EGTFISDY[Ac5c]IAMDKIHQQDFVNWLLAQKGKKNDWKHNI[Ac5c]Q-OH [Example 106, (D-Ala^2, A5c^11, 41)hGIP(1-42)-OH] lower than 300 min or not?
[A] F

[Q] hey, is half-life at 0.1 mg/ml for Y[Aib]EGTF[Ac6c]SDYSIA[Nle]DKIHQQDFVNWLLAQK[Aib]KKNDWKHNITQ-OH [Example 24, (Aib^2, 31, A6c^7, Nle^14)hGIP(1-42)-OH] lower than 300 min or not?
[A] F

[Q] hey, is half-life at 0.1 mg/ml for Y[Aib]EG[Ac5c]FISDYSIAMDKIHQQDFVNWLLAQKGKKNDWKHNITQ-OH [Example 5, (Aib^2, A5c^5)hGIP(1-42)-OH] lower than 300 min or not?
[A] F

---

- Assay method text: Human plasma half-life assay
- Assay type: in vitro ADME
- Setup conditions: human plasma, 37° C., LC-MS; read-out: Human Plasma T½ (converted)
Where no end group is shown, it is not given here. [ ]: non-standard residue; d: D form. The star is where a group is joined. Tic = O=C(O)[C@@H]1Cc2ccccc2CN1; Pip = O=C(O)[C@@H]1CCCCN1; Ac6c = NC1(C(=O)O)CCCCC1; Nle = CCCC[C@H](N)C(=O)O; X1 = CCCN1C(=O)CC(*)C1=O; Ac5c = NC1(C(=O)O)CCCC1; Aib = CC(C)(N)C(=O)O
Recorded half-life at 0.1 mg/ml, one value per entry.
Please respond with the number in min and leave the unit unwritten.

Worked set:
substance="Y[Aib]EGTF[Ac5c]SDYSIA[Ac5c]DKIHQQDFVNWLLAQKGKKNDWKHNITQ-OH [Example 59, (Aib^2, A5c^7, 14)hGIP(1-42)-OH]" reported_value=1440
substance="YA[Tic]GTFISDY[Ac5c]IAMDKIHQQDFVNWLLAQKGKKNDWKHNITQ-OH [Example 82, (Tic^3, A5c^11)hGIP(1-42)-OH]" reported_value=582
substance="Y[Aib]EGTF[Ac6c]SDYSIA[Nle]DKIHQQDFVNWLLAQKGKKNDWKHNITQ-OH [Example 55, (Aib^2, A6c^7, Nle^14)hGIP(1-42)-OH]" reported_value=528
substance="YAPGTFISDYSI[Aib]MDKIHQQDFVNWLLAQKGKKNDWKHNITQ [Example 75, (Pro^3, Aib^13)hGIP(1-42)-OH]" reported_value=1570
substance="Y[Aib]EGTF[Ac5c]SDYSIA[Nle]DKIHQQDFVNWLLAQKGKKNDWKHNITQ-OH [Example 58, (Aib^2, A5c^7, Nle^14)hGIP(1-42)-OH]" reported_value=2260
substance="Y[Aib]EGTF[Ac6c]SDYSIAMDKIHQQDFVNWLLAQKGKKNDWKHNITQ-OH [Example 43, (Aib^2, A6c^7)hGIP(1-42)-OH]" reported_value=528
substance="YGEGTFISDY[Ac5c]IAMDKIHQQDFVNWLLAQKGKKNDWKHNITQH-OH [Example 117, (Gly^2, A5c^11, His^43)hGIP(1-43)-OH]" reported_value=1510
substance="YA[Pip]GTFISDYSI[Aib][Nle]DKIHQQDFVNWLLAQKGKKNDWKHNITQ-OH [Example 63, (hPro^3, Aib^13, Nle^14)hGIP(1-42)-OH]" reported_value=852
substance="Y[Aib]EGTF[Ac6c]SDYSIAMDKIHQQDFVNWLLAQKGKKNC(X1)WKHNITQ-OH [Example 85, [Aib^2, A6c^7, Cys(Psu)^35]hGIP(1-42)-OH]" reported_value=438
substance="Y[Aib]EGTF[Ac5c]SDYSIA[Ac6c]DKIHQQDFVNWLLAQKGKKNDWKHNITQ-OH [Example 44, (Aib^2, A5c^7, A6c^14)hGIP(1-42)-OH]" reported_value=570

Now, please, on to the next substance.
[Q] Give the measured half-life at 0.1 mg/ml for YAPGTFISDYSI[Aib][Nle]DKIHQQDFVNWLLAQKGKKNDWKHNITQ-OH [Example 62, (Pro^3, Aib^13, Nle^14)hGIP(1-42)-OH]
[A] 684
